System name: NR1/NR2A (Homo sapiens (Human), UniProt Q05586+Q12879)
Sequence (Q12879 23-1464, other chains not shown): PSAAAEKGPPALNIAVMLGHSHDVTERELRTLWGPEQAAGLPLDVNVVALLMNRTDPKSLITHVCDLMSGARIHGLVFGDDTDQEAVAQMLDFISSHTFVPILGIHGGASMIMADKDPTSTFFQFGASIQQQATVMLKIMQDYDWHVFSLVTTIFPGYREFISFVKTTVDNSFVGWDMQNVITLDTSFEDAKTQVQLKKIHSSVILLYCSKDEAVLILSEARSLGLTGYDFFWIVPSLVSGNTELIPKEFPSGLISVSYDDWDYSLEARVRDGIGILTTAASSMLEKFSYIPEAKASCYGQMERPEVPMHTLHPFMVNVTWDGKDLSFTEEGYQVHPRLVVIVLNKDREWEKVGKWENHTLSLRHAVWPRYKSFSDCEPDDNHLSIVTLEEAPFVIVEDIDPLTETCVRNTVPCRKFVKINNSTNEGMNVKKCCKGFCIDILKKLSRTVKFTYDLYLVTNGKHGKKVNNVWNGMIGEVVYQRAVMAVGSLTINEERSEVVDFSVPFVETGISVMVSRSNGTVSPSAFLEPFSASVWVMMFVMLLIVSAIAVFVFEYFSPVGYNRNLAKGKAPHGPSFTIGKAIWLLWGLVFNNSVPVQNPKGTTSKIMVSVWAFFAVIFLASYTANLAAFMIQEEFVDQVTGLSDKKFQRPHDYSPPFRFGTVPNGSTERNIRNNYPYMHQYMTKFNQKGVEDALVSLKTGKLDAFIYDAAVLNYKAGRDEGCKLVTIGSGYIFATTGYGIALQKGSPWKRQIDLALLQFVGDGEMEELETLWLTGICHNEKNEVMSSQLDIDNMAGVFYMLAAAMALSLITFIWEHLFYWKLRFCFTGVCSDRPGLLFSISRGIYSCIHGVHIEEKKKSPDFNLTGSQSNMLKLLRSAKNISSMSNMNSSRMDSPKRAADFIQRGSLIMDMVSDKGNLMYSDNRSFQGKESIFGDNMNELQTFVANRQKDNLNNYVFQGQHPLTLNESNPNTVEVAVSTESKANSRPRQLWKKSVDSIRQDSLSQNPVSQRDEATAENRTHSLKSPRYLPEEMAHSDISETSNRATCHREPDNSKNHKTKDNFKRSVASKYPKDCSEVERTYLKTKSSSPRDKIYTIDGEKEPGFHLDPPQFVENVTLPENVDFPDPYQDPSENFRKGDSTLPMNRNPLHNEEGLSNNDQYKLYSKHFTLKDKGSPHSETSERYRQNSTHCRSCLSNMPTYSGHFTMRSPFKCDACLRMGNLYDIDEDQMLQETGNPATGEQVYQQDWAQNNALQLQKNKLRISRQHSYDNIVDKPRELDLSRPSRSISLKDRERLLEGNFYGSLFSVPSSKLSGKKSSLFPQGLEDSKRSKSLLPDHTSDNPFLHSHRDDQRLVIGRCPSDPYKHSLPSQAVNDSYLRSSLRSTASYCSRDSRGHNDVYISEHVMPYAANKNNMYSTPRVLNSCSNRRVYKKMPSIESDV
Experiment notes: FDSS Ca2+ influx inhibition assay in HEK293 cells expressing NR1/NR2A
Format: cell-based
Run parameters: 3 μM glutamate, 3 μM glycine, 1 mM Ca2+, read-out: Binned Activity
Parameter: IC50. Scope: all listed entries.

Compound structure string | Value observed
O=C(NCc1ccco1)c1ccc(CNS(=O)(=O)c2ccc(F)c(Cl)c2)nn1 | > 10 µM
O=C(NCc1cocn1)c1ccc(CNS(=O)(=O)c2ccc(F)c(Cl)c2)cn1 | > 10 µM
Cc1ccc(CNC(=O)c2cnc(CNS(=O)(=O)c3ccc(F)c(Cl)c3)cn2)n1C | 0.1 to 1 µM
Cc1ncc(CNC(=O)c2cnc(CNC(=O)c3ccc(Cl)cc3Cl)cn2)s1 | > 10 µM
Cc1ncc(CNC(=O)c2cnc(CNC(=O)c3cc(Cl)ccc3F)c(C)n2)s1 | > 10 µM
Cc1ncc(CNC(=O)c2cnc(CNS(=O)(=O)c3cc(F)cc(F)c3)c(C)n2)s1 | 0.1 to 1 µM

For Cc1ncc(CNC(=O)c2ccc(CNS(=O)(=O)c3ccc(Cl)nc3)cn2)s1 , what is its reported IC50?
> 10 µM

For O=C(NCc1ccoc1)c1ccc(CNS(=O)(=O)c2ccc(F)c(Cl)c2)cn1 , what is its reported IC50?
> 10 µM

For O=C(NCc1cncnc1)c1ccc(CNS(=O)(=O)c2ccc(F)c(Cl)c2)nn1 , what is its reported IC50?
> 10 µM

For Cc1csc(CNC(=O)c2ccc(CNS(=O)(=O)c3ccc(F)c(Cl)c3)cn2)n1 , what is its reported IC50?
> 10 µM

For Cc1nc(C)c(CNC(=O)c2ccc(CNS(=O)(=O)c3ccc(F)c(Cl)c3)nc2)s1 , what is its reported IC50?
> 10 µM

For Cc1ncc(CNC(=O)c2ccc(CNC(=O)c3cccc(Cl)c3C)cn2)s1 , what is its reported IC50?
> 10 µM

For Cc1ncc(CNC(=O)c2cnc(CNC(=O)c3cc(F)cc(F)c3)cn2)s1 , what is its reported IC50?
> 10 µM

For O=C(NCc1ccncn1)c1ccc(CNS(=O)(=O)c2ccc(F)c(Cl)c2)nn1 , what is its reported IC50?
> 10 µM

From: patent US9963434B2
